These measurements were taken from patent US11230526B1.

- test_target: long form of human GPR120 (Homo sapiens)
- Sequence (Q5NUL3 1-377 isoform Q5NUL3-1): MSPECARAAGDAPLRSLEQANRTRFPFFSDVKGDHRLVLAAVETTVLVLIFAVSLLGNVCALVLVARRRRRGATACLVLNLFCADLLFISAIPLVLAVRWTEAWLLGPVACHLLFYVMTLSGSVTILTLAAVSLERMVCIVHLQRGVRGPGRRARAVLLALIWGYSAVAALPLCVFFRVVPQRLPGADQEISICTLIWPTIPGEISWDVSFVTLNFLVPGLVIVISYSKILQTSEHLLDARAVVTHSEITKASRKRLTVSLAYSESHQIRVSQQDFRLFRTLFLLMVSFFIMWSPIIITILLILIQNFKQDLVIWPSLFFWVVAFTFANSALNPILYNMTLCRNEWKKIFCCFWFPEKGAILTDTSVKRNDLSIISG
- Sequence (P32121 whole entry partner): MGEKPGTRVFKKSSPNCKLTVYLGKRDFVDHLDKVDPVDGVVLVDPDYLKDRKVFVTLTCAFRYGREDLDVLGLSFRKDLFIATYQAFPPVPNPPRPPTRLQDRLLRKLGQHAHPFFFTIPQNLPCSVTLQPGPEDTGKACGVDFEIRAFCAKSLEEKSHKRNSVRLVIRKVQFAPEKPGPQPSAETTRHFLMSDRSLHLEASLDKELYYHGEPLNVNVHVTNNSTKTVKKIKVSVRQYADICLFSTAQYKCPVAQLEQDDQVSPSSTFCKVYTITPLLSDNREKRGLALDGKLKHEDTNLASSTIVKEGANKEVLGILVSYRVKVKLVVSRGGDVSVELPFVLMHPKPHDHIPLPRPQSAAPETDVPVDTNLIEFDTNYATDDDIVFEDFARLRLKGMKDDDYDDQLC
- assay_summary: Human GPR120 DiscoveRx PathHunter Beta-Arrestin assay, Procedure β-arrestin A
pEC50: −log10 of the molar value.
measurement_kind: pEC50

[I] Cc1ccc(C2=C(COc3c(F)cc(CCC(=O)O)cc3F)CC(F)(F)CC2)s1
[II] Cc1c(CCC(=O)O)ccc(OCC2=C(c3ccc(Cl)cc3)CC(C#N)C2)c1C (centres unmarked)
[in] Param metric = pEC50; output whichever of I , II has the minimum value. Your choice should be expressed through its label.
[out] II

[1] Cc1ncc(C2=C(COc3ccc(CCC(=O)O)cc3C)CC(F)(F)C2)s1
[2] Cc1cc(OCC2=C(c3ccc(Cl)cc3)CCC2)c(Br)cc1CCC(=O)O
[in] Field: lower recorded pEC50 (choose 1 or 2 ) Write down the label of the entry you select.
[out] 1
(1: 6.43, 2: 6.78)

[A] Cc1cc(CCC(=O)O)ccc1OCC1=C(c2ccc(F)cc2)CCC1
[B] O=C(O)CCc1ccc(OCC2=C(c3ccc(F)cc3)CCC(F)(F)C2)cc1
[in] Looking at A and B , which one comes out lower in pEC50 terms? Your answer should be the label of the entry you select.
[out] A
(A: 6.47, B: 6.88)
